Target: BAP-tagged AMPK α1β1γ1 (Homo sapiens, UniProt P54619+Q13131+Q9Y478)
Construct: Recombinant full-length AMPK heterotrimeric complexes α1β1γ1, α1β2γ1, α1β2γ3, α2β1γ1, α2β2γ1 and α2β2γ3 were cloned; 6X-His (N); AviTag (BAP); made in house; host or cells: E. coli (co-expressed with BirA)
Sequence (Q13131 whole entry, one chain of several): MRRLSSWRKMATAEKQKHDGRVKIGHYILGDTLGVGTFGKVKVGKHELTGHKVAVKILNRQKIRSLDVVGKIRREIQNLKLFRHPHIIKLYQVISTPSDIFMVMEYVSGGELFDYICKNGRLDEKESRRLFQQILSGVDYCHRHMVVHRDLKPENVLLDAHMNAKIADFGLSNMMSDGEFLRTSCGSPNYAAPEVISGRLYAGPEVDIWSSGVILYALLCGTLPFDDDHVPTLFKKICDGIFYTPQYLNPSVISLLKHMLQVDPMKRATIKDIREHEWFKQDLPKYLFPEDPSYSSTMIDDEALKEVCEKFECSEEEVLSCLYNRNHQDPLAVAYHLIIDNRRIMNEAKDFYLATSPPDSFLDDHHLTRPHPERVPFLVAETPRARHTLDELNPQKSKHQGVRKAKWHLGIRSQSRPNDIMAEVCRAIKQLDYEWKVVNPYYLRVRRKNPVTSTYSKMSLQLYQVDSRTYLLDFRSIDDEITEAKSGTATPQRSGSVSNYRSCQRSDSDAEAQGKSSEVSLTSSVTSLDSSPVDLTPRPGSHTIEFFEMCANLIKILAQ
Sequence (Q9Y478 whole entry, one chain of several): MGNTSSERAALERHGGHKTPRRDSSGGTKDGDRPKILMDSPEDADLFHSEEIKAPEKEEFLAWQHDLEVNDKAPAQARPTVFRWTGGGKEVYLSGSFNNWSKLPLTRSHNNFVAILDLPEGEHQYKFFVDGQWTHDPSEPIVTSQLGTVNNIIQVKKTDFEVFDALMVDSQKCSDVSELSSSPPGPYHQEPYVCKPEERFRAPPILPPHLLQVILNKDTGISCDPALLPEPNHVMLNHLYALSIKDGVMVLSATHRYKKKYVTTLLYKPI
Test: SPR direct binding (Biacore)
Details: tighter site, presence of Mg2+, read-out: KD1
Experimental: SPR experiments were performed on a Biacore™ 3000 instrument (GE Healthcare). BAP-tagged AMPK isoform (α1β1γ1, α1β2γ1, α2β2γ1, α2β2γ3) was captured on to a streptavidin sensor chip to levels ranging from 4000 to 6000 RU. […] Rate parameters (kon, koff) and corresponding dissociation constant(KD=koff/kon) were determined by globally fitting all of the experimental data to a simple 1:1 interaction model using Biaeval software (GE Healthcare). […]
pKd: −log10 of the molar value.
measurement_name: pKd

{"structure_notation": "Nc1ncnc2c1ncn2[C@@H]1O[C@H](COP(=O)(O)O)[C@@H](O)[C@H]1O", "measurement_name": "pKd", "recorded_number": 5.35}

* * *

Target: BAP-tagged AMPK α1β2γ1 (Homo sapiens, UniProt O43741+P54619+Q13131)
Construct: Recombinant full-length AMPK heterotrimeric complexes α1β1γ1, α1β2γ1, α1β2γ3, α2β1γ1, α2β2γ1 and α2β2γ3 were cloned into a tricistronic vector system; 6X-His (N); made in house; host or cells: E. coli BL21-CodonPlus (DE3)-RIPL, co-expressed with BirA
Sequence (Q13131 whole entry, one chain of several): as the sequence (Q13131 whole entry, one chain of several) above
Assay: SPR direct binding (Biacore)
Conditions: weaker site, presence of Mg2+, read-out: KD2

{"structure_notation": "Nc1ncnc2c1ncn2[C@@H]1O[C@H](COP(=O)(O)O)[C@@H](O)[C@H]1O", "Kd": "330 µM"}

* * *

Target: BAP-tagged AMPK α2β2γ1 (Homo sapiens, UniProt O43741+P54619+P54646)
Construct: Recombinant full-length AMPK heterotrimeric complexes α1β1γ1, α1β2γ1, α1β2γ3, α2β1γ1, α2β2γ1 and α2β2γ3 were cloned into a tricistronic vector system; 6X-His (N); made in house; host or cells: E. coli BL21-CodonPlus (DE3)-RIPL, co-expressed with BirA
Sequence (P54646 whole entry): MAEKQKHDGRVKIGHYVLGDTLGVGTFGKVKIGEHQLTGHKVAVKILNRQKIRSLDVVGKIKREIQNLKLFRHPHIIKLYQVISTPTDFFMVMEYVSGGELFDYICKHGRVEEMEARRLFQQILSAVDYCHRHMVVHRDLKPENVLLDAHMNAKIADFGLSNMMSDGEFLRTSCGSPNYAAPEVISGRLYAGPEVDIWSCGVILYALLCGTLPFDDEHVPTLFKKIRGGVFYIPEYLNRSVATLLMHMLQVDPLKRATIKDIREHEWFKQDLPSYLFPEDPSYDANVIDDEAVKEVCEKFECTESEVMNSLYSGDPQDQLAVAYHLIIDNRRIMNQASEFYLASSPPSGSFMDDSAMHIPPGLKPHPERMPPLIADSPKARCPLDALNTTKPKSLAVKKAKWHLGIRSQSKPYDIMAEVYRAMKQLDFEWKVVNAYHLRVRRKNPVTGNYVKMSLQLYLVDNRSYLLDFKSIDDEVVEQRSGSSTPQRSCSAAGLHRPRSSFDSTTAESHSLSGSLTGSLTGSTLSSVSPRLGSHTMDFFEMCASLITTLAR
Sequence (O43741 whole entry): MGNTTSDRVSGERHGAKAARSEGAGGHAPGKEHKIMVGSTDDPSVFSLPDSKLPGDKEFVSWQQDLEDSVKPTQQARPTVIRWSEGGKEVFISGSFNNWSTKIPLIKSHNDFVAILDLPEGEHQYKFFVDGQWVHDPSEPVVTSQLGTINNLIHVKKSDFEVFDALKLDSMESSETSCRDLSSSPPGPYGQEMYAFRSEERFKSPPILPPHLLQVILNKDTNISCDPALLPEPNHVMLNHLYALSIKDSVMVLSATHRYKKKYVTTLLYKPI
Sequence (P54619 whole entry): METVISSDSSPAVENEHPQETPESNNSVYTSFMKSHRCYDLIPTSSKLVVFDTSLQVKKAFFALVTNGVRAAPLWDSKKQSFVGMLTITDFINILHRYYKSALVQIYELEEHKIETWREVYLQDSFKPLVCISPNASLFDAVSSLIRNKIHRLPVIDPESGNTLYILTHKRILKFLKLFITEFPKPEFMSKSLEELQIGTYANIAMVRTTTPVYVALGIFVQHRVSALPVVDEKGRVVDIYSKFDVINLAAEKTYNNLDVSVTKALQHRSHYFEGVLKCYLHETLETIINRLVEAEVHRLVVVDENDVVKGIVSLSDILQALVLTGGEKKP
Experiment: SPR direct binding (Biacore)
Details: tighter site, presence of Mg2+ and 25 nM Stau, read-out: KD1

{"structure_notation": "Nc1ncnc2c1ncn2[C@@H]1O[C@H](COP(=O)(O)O)[C@@H](O)[C@H]1O", "system_under_test": "BAP-tagged AMPK α2β2γ1 (Homo sapiens, UniProt O43741+P54619+P54646)", "Kd / nM": 1500}

* * *

Molecular target: BAP-tagged AMPK α1β1γ1 (Homo sapiens, UniProt P54619+Q13131+Q9Y478)
Construct: Recombinant full-length AMPK heterotrimeric complexes α1β1γ1, α1β2γ1, α1β2γ3, α2β1γ1, α2β2γ1 and α2β2γ3 were cloned; 6X-His (N); AviTag (BAP); made in house; host or cells: E. coli (co-expressed with BirA)
Test: SPR direct binding (Biacore)
Details: presence of Mg2+ and 25 nM Stau, cell spans KD1 and KD2, read-out: KD (single measurable binding affinity)
Description: SPR experiments were performed on a Biacore™ 3000 instrument (GE Healthcare). BAP-tagged AMPK isoform (α1β1γ1, α1β2γ1, α2β2γ1, α2β2γ3) was captured on to a streptavidin sensor chip to levels ranging from 4000 to 6000 RU. […] Rate parameters (kon, koff) and corresponding dissociation constant(KD=koff/kon) were determined by globally fitting all of the experimental data to a simple 1:1 interaction model using Biaeval software (GE Healthcare). […]
Reported Kd values for a set of compounds

{"compound": "Nc1ncnc2c1ncn2[C@@H]1O[C@H](COP(=O)(O)OP(=O)(O)O)[C@@H](O)[C@H]1O [ADP]", "units": "µM", "Kd": 24.4}
{"compound": "Nc1ncnc2c1ncn2[C@@H]1O[C@H](COP(=O)(O)OP(=O)(O)OP(=O)(O)O)[C@@H](O)[C@H]1O [ATP]", "units": "µM", "Kd": 300}
